targetOfAssay: T1, human CD3 (human, UniProt P07766 23-207; P09693 23-182; P04234 22-171)
T1 construct: whole, on cells; also called CD3 on Jurkat T cells; CD3 on primary human T cells
protocol: apparent KD (KDapp), flow cytometry titration on Jurkat cells
pKd: −log10 of the molar value.
Measured pKd, listed per entry.
readoutKind: pKd

binder	readoutKind	number
F332-7C5 (antibody, mouse IgG2a, V domains shown, also called F332-7C5-2; F332-7C5 (5E12, 10A8)) VH: QVQLQQPGAELGKPGTSVKLSCKASGYTFTSYWMHWVKQRPGQGLEWIGNINPSSGITNYNERFKNKATLTVDKSSTTAYMQLSILTSEDSAVYYCSRDISGQYYFNFWGQGTTLTVSS VL: DIVMSQSPSSLAVSAGEKVTMSCKSSQSLLNSRTRKNYLAWYQQKPGQSPKLLIYWASTRESGVPDRFTGTGSGTDFTLTISSVQAEDLAVYYCKQSYNLRTFGGGTKLEIK	pKd	9.22
F282-2D5 (antibody, V domains shown, also called F282-2D5-2) VH: QVQLQQPGTELVKPGASVKLSCKASGYTFTSYWMHWVKQRPGQGLEWIGNINPSNGGTNYNENFKTKATLTVDKSSSTAYMQLSSLTSEDSAVYYCARDRSGQYYFDYWGQGTTLTVSS VL: DIVMSQSPSSLAVSAGEKVTMSCKSSQSLLNSRTRKNYLAWYQQKPGQSPKLLIYWASTRESGVPDRFTGSGSGTDFTLTISSVQAEDLAVYYCIQSYHLRTFGGGTILEIK	pKd	9.52
F332-1C9 (antibody, mouse IgG2a, V domains shown, Sister clones 1A10, 5H8, 8B11 share the same entries; also called F332-1C9-2; F332-1C9 (1A10, 5H8, 8B11)) VH: QVQLQQPGAELGKPGTSVNLSCKASGYTFTSYWMHWVKQRPGQGLDWIGNINPNSGTTNYNEKFKSKATLTVDKSSSTAYMQLSTLTSEDSAVYYCTRDISGQYYFDYWGQGTSLTVSS VL: DIVMSQSPSSLAVSAGEKVTMSCKSSQSLLNSRTRKNYLAWYQQKPGQSPKLLIYWASTRESGVPDRFTGSGSGTDFTLIISSVQAEDLAVYYCKQSYSLRTFGGGTKLEIK	pKd	9.30

Entry source: patent US20250051443A1
